Value source: ChEMBL document CHEMBL6083192

# test.method.notes: Inhibition of GST-tagged DCN4 (unknown origin)/acetylated-biotin tagged UBC12 (unknown origin) protein-protein interaction assessed as inhibition constant incubated for 30 mins by HTRF assay
parameter: Ki (nM)

* C#CCSc1nc(Sc2nccs2)c(C#N)c(-c2ccc(C)cc2)n1 | 810

====

IC50 for assorted compounds
# target.system: DCN1-like protein 1/NEDD8-conjugating enzyme Ubc12 (Homo sapiens, UniProt Q96GG9)
# Sequence (Q96GG9 whole entry): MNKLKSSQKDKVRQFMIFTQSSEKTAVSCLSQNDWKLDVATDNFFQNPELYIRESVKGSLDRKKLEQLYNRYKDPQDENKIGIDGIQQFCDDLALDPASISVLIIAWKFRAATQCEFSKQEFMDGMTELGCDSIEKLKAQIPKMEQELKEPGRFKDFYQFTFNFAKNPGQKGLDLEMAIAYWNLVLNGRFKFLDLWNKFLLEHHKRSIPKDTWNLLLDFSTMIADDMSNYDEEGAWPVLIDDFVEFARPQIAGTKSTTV
# Sequence (P61081 whole entry, further chain): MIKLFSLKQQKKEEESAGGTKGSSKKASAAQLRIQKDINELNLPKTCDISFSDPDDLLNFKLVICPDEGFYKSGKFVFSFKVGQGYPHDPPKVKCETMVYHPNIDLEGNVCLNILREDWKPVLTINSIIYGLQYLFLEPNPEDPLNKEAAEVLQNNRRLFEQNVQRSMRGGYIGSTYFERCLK
# test.method.notes: Inhibition of GST-tagged DCN1 (unknown origin)/acetylated-biotin tagged UBC12 (unknown origin) protein-protein interaction incubated for 30 mins by HTRF assay
parameter: IC50 (µM)

- O=C(Cn1c(-c2ccc(Cl)cc2)n[nH]c1=S)Nc1cccc(C(F)(F)F)c1: 0.0274
- CC(C)(C)c1ccc(-c2n[nH]c(=S)n2CCC(=O)Nc2cccc(C(F)(F)F)c2)cc1: 0.00785
- COc1cccc(NC(=O)CCn2c(-c3ccc(Cl)cc3)n[nH]c2=S)c1: 0.0776
- O=C(CCn1cnnc1-c1ccc(Cl)cc1)Nc1cccc(C(F)(F)F)c1: 15.8
